Test: yeast display, Sf9 membrane polyspecificity reagent, FACS + sequencing; frameworks hold sequencing errors
property: polyreactivity (PSR sort gate)

// below: answered sequences
- seq-string: "QDQLVESGGGLVQAGGSLRLSCAASGSIFAGNVMGWYRQAPGKERELVAAISRRGGRTYYADSVKGRFTISRDNAKNTVYLQMNSLKPEDTAVYYCAARRDPVLGKSDYWGQGTLVTVSS"
  polyreactivity (PSR sort gate): "high polyreactivity"
- seq-string: "QVQLVESGGGLVQAGGSLRLSCAASGRTFYRNAMGWYRQAPGKERELVAAITWSGVSTYYADSVKGRFTISRDNAKNTVYVQMNSQKPEDTAVYYCARGRVLRNGHYFQLRNYDYWGQGTQVTVSS"
  polyreactivity (PSR sort gate): "high polyreactivity"
- seq-string: "QVQLVESGGGFVQAGGSHRLSCASSGRTFVLYTMGLYRQAPGKERELVAVGSTYYADSVKGRFTISRDNAKNTVYLQMNSLKPEDTALYYCNKPGNYLWRRSWDFYYWGQGTQVTVST"
  polyreactivity (PSR sort gate): "high polyreactivity"
- seq-string: "QVQLVESGGGIVQAGGSLRVSCAASGTMGWYRQAPGKERELVAAISQSGGSTYYADSVKGRFTISRDNAKNTVYLQMNSLKPEDTAVYYCAVDPGYGHPRRDYWGQGTQVTVSS"
  polyreactivity (PSR sort gate): "low polyreactivity"

Consider the record given below.
Req: Which polyreactivity (PSR sort gate) reading was recorded for the sequence QVQLVESGGGLVQAGGSLRLSCAASGRIFLRNAMGWYRQAPGKERELVATITSRGGSTYYADSVRGRFTISRDNAKNTVYLQMNSLKPEDTAVYYCAAKVAWGHWRGYDYWGQGTQVTVSS ?
Resp: low polyreactivity

----------
Assay: yeast display, Sf9 membrane polyspecificity reagent, FACS + sequencing; frameworks hold sequencing errors
property: polyreactivity (PSR sort gate)

These solved cases illustrate the format of a correct answer.
- seq-string: "QVQLVESGGGLVQAGGSLRLSCAASGRIFINNAMGWYRQAPGKERELVAAINTGGGTNYADSVKGRFTISRDNAKNTVYLEMNSLKPEDSAVYYCAARTYDFRARHKDGYWGQGTQVTVSS"
  meas-value: "high polyreactivity"
- seq-string: "QVQMQESGGGLVQAGGSLRLSCAASGSISRYYDMGWYRQAPGKEREFVAGISGGAITYYADSVKGRFTISRDNAKNSVYLQMNSLNREDTAVYYCAADTGVYQYHSYWGQGTQVTVSS"
  meas-value: "low polyreactivity"
- seq-string: "QVQLVESGGGLVQAGGSLRLSCAPSGSTFRFYAMGWYRQAPGKERELVAVISSAGSTNYADSVKGRFTISRDNAQNTVYLQMNSLKPEDTAVYYCAAYRRYSIYNYWGQGTQVTVSS"
  meas-value: "high polyreactivity"
- seq-string: "QVQLVESGGGLVQAGGSLRLSCAASGSTFWSNTMGWYRQAPGKERELVASITTSGGRTYYADSVKGRFTISRDNAKNTVYLQMNSLKPEDTAVYYCAAGGRVRRRYGYWGQGTQVTVSS"
  meas-value: "high polyreactivity"

Req: Form field: reported polyreactivity (PSR sort gate) of QVQLVESGGGLVQAGGSLRLSCAASGSPFHRYVMGWYRQAPGKERELVAVINSTGGSTYYADSVKGRFTISRDHAKNTVDLQMNSLKPEDTAVYYCNAVRDWGPSQVYDGMDYWGQGTQVTVSS
Resp: low polyreactivity

----------
Experiment: yeast display, Sf9 membrane polyspecificity reagent, FACS + sequencing; frameworks hold sequencing errors
property: polyreactivity (PSR sort gate)

- seq-string: "QVQLVESGGGLVQAGGRLRLSCDASGITFISNTMGWSRQAPGKERELVAAISWTGGSTYYADSVKGRFTISRDNAKNTVYLQMNSQKPEDTAVYYCNAVRYYVYSTQYDYWGEGTQVTVSS"
  polyreactivity (PSR sort gate): "high polyreactivity"
- seq-string: "QVQLVESGGGLVQAGGSLRLSCAASGFNFTHYAMGWYRQAPGKERELVAAISRNGGSTYYADSVKGRFTISRDNAKNTVYLQMNSLKPEDTAVYYCAAVRHGVSLAGYYWGQGTQVTVSS"
  polyreactivity (PSR sort gate): "high polyreactivity"
- seq-string: "QVQLVESGGGLVQAGGSLRLSCAASGRTFGVYAMGWYRQAPGKERELVAAIRWSGGGTYYADSVKGRFTISRDNAKNTVYLQMNSLKPEDTAVYYCNAEIWTEGGYWGQGTQVTVSS"
  polyreactivity (PSR sort gate): "low polyreactivity"
- seq-string: "QVQLVESGGGLVQAGGSLRLSCAASGRIFVYNDMGWYRQAPGKERELVAAISSVGTTYYADSVKGRFTISRDNAKNTVYLQMNSLKPEDTAVYYCAVTRYHSPPRYYYWGQGTQVTVSS"
  polyreactivity (PSR sort gate): "low polyreactivity"
- seq-string: "QVQLVESGGGLVQAGGSLRLSCAASGSIFPHYAMGWYRQAHGKERELVAAMSYSGGRTYYADSVKGRFTISRDNAKNTVYLQMNSLKPEDTAVYYCAKPERVLYHGDYWGQGTQVTVSS"
  polyreactivity (PSR sort gate): "low polyreactivity"
- seq-string: "QVQLVESGGGLVQAGGSLRLSCAASGRIFSGYAMGWYRQAPGKERELVAAITSVGSTNYADSVKGRFTISRDNAKNNVYLQMNSLKPEDTAVYYCAARSQSYYRYRSYGYWGQGTQVTVSS"
  polyreactivity (PSR sort gate): "high polyreactivity"

Req: I would be grateful if you could share the reported polyreactivity (PSR sort gate) for QVHLVESGGGLVQAGGSLRLSCAASGSTFKRNAMGWYRQAPGKERELVAAITQRGGRTYYADSVKGRFTISRDNAKNTVYLQMNSLKPEDTAVYYCAVDSQTANDYDYWGQGTEVTVSS .
Resp: low polyreactivity

Req: State the recorded polyreactivity (PSR sort gate) for this entry: QVQLEESGGGLVQAGGSLRISSAASGSTLGSNAMGWYRQAPGKEMELVAAITWSGGTTYYADSVKGRFTIARDNPKNTVSLQMNSLKPEDTAVYYCATGQSVIYRYEYWGQGTQVTVSS
Resp: low polyreactivity

----------
Test: yeast display, Sf9 membrane polyspecificity reagent, FACS + sequencing; frameworks hold sequencing errors
property: polyreactivity (PSR sort gate)

Some sequences with recorded polyreactivity (PSR sort gate):
- seq-string: "QVQLVESGGGLVQAGGSLRLSCAASVRIYGSNVMGWYRQAPGKERELVASISSGGTTYYADSVKGRFTISRDNAKNTVYLQMNSLKPEDTAVYYCAKQWTRIYQYRWYPGTRTGYDYWGQGTQVTVSS"
  polyreactivity (PSR sort gate): "high polyreactivity"
- seq-string: "QVQLVESGGGLVQAGCSLRLSCAATGFIFKRNAMGWYRQAPGKERELVAAITKSGVNSYYADSVKGRFTISRDNAKNTVYLLMNSLKPEDTAVYYCAARGNRKQAWYKYNYCGQGTQVTVSS"
  polyreactivity (PSR sort gate): "high polyreactivity"
- seq-string: "QVQLVESGGGLVQAGGSLRLSCAASGSTFLHYAMGWYRQAPGKERELVATITSGDSTSYADSVKGRFTISRDNAKNTVYLQMNSLKPEDTAVYYCTANRVHRSASPYDYWGQGTQVTVSS"
  polyreactivity (PSR sort gate): "low polyreactivity"
- seq-string: "QVQLVESGGGLVQAGGSLRLSCAASGSIFYSYAMGWYRQAPGKERELVAAISTTGGSTYYADSVKGRFTISRDNAKNTVYLQMNSLKPEDTAVYYCAREQGFRGDWYDYWGQGTQVTVSS"
  polyreactivity (PSR sort gate): "high polyreactivity"
- seq-string: "QVQLVESGGGLVQAGGSLRLSSAASGSTFDSNAMGWYRQAPGKERELVAAIDYSSDSTYYADSVKGRFTISRDNAKNTVYLQMNSLKPEDTAVYYCAAVAYIFCARYGYNYWGQGTQVTVSS"
  polyreactivity (PSR sort gate): "low polyreactivity"

Req: Reported polyreactivity (PSR sort gate), sequence QVQLVESGGGLVQAGGSLRLSCVASGGIFFHYAMRWYRHARGKERELVAAISISGGSTYSADSVKGRFTISRDNAKNTVYLQMNSLKPEDTAVYYCAARYWVRRKDYWGQGTQVTVSS : ____
Resp: low polyreactivity

Req: Reported polyreactivity (PSR sort gate) for QVQLVESGGGLVQAGGSLRLSCAPSGRTLFTNAMGWYRQAPGKERELVAAISIGGTTYYADSVKGRFTISRDNAKNTVYLQMNSLKPEDTAVYYCNKVRRFHSEYGYWGQGTQVTVSS : what is it?
Resp: high polyreactivity

Req: polyreactivity (PSR sort gate) lookup needed for QVQLVESGGGLVQAGGSLRLSCAASGLISRRNAMGWYRQAPGKERELVAAISTGSSTNYADSVKGRFTLSRDNAKNTVYLQMNSLKPEDSAVYYCAATQYWWSTLGIRDDYWGQGTQVTVSS , thanks.
Resp: low polyreactivity

Req: Give its polyreactivity (PSR sort gate) value. Item: QVQLVESGGGLVQAGGSLRLSCAASGSTLGYYTMGWYRQAPGKERELVAAIDWSGGSTYYADSVKGRFTISRDNAKNTVYLQMNSLKPEDTAVYYCAVDYTYSYVDYWSEYDYWGQGTQVTVSS
Resp: low polyreactivity

Req: For the sequence shown here, QVQLVESGGGLVQAGCSLRLSCAASGSTFRWYAMGWYRPAPGKEREFVAAITSSGGSTYYADSVKGRFTISRDNAKNTVYLQMNSLKPEDTAVYYCNRRYQPYSYDYWGQGTQVTVSS , give the reported polyreactivity (PSR sort gate).
Resp: high polyreactivity

Req: I'd like to know its polyreactivity (PSR sort gate). The sequence in question is QVQLVESGGGLVQAGGSLRLSCAASGRISTYNAMGWYIQAPGKERELVASITGGGSTNYADSVKGRFTISRDNAKNTVYLQMNSLKPEDTAVYYCNAKARGQRGYRKIYGYDYWGQGTQVTVSS
Resp: high polyreactivity
